Measured melting point, listed per entry.
observation-type: melting point

1) Cc1c(C)c2c(c(C)c1O)CCC(C)(C(=O)OCCO[N+](=O)[O-])O2 (racemic) [Compound 9]	95 to 97 °C
2) CC(C)(C)c1cc(/C=C/C(=O)OCCc2ccc([N+](=O)[O-])cc2)cc(C(C)(C)C)c1O [Compound 8]	156 to 157 °C
3) CC(C)(C)c1cc(/C=C/C(=O)OCCO[N+](=O)[O-])cc(C(C)(C)C)c1O [Compound 7]	80 °C
4) COc1ccc2c(c1)c(CC(=O)OCCO[N+](=O)[O-])c(C)n2C(=O)c1ccc(Cl)cc1 [Compound 3]	83 to 84 °C

====

- assay: In vitro nitrogen monoxide release (Griess reagent)
- condition-notes: compound 250 μM; DMSO/water 7/3, overnight, cadmium
Note to self: NO Release under 50 μΜ means Fulfilled, ties and anything higher get Not fulfilled.

1) CC(C)Cc1ccc(C(C)C(=O)OCCO[N+](=O)[O-])cc1 (racemic)	Not fulfilled
2) CC(C(=O)OCCO[N+](=O)[O-])c1cccc(C(=O)c2ccccc2)c1 (racemic)	Not fulfilled
3) COc1ccc2c(c1)c(CC(=O)OCCO[N+](=O)[O-])c(C)n2C(=O)c1ccc(Cl)cc1	Not fulfilled
4) CC(C)(C)c1cc(/C=C/C(=O)OCCO[N+](=O)[O-])cc(C(C)(C)C)c1O	Fulfilled
5) COc1ccc2cc(C(C)C(=O)OCCO[N+](=O)[O-])ccc2c1 (single isomer, unassigned; (+))	Fulfilled

====

- assay: Interaction with the stable radical DPPH
- condition-notes: compound 200 μΜ; DPPH 200 μΜ; after 30 min
observation-type: Percent Interaction with DPPH (%)

1. Cc1c(C)c2c(c(C)c1O)CCC(C)(C(=O)OCCO[N+](=O)[O-])O2 (racemic) [Compound 9]	92
2. CC(C)(C)c1cc(/C=C/C(=O)OCCO[N+](=O)[O-])cc(C(C)(C)C)c1O [Compound 7]	87
3. Cc1c(C)c2c(c(C)c1O)CCC(C)(C(=O)O)O2 (stereo not shown) [Trolox, reference compound]	92
4. CC(C)(C)c1cc(/C=C/C(=O)OCCc2ccc([N+](=O)[O-])cc2)cc(C(C)(C)C)c1O [Compound 8]	88

====

Measured NO Release, listed per entry.
- assay: In vitro nitrogen monoxide release (Griess reagent)
- condition-notes: compound 500 μM; DMSO/water 7/3, overnight, cadmium
- Experimental: Due to their poor aqueous solubility, compounds 1, 3-7 and 9 were dissolved in 7/3 (v/v) mixture of DMSO/water at various concentrations and incubated overnight at room temperature in the presence of cadmium. S-nitroso-N-acetylpenicillamine (SNAP) was dissolved either in DMSO/water 7/3 or in water and treated as above. Aliquots were taken from each sample and added to an equal volume of N-naphthylaminoethylamine (0.2%) and sulfanilamide (2%) solution in 3 N hydrochloric acid (Griess reagent). […]
observation-type: NO Release (μΜ)

1. COc1ccc2cc(C(C)C(=O)OCCO[N+](=O)[O-])ccc2c1 (single isomer, unassigned; (+))	73
2. CC(C(=O)OCCO[N+](=O)[O-])c1cccc(C(=O)c2ccccc2)c1 (racemic)	100
3. Cc1c(C)c2c(c(C)c1O)CCC(C)(C(=O)OCCO[N+](=O)[O-])O2 (racemic)	93
4. O=C(/C=C/c1ccccc1)OCCO[N+](=O)[O-] [Compound 6, (E)-2-(Nitrooxy)ethyl cinnamate]	98
5. CC(C)(C)c1cc(/C=C/C(=O)OCCO[N+](=O)[O-])cc(C(C)(C)C)c1O	77
6. CC(C)Cc1ccc(C(C)C(=O)OCCO[N+](=O)[O-])cc1 (racemic)	116
7. COc1ccc2c(c1)c(CC(=O)OCCO[N+](=O)[O-])c(C)n2C(=O)c1ccc(Cl)cc1	102

====

Let's go through some recorded IC50 values for soybean lipoxygenase 1-B (Glycine max, UniProt P08170) together.
observation-type: IC50

1. CC(C)(C)c1cc(/C=C/C(=O)OCCc2ccc([N+](=O)[O-])cc2)cc(C(C)(C)C)c1O	10.5 µM
2. CC(C)(C)c1cc(/C=C/C(=O)OCCO[N+](=O)[O-])cc(C(C)(C)C)c1O	44 µM
3. Cc1c(C)c2c(c(C)c1O)CCC(C)(C(=O)O)O2 (centres unmarked) [Trolox, reference compound]	> 300 µM
4. COc1ccc2cc(C(C)C(=O)OCCO[N+](=O)[O-])ccc2c1 (single isomer, unassigned; (+))	> 300 µM
5. O=C(/C=C/c1ccccc1)OCCO[N+](=O)[O-] [Compound 6, (E)-2-(Nitrooxy)ethyl cinnamate]	220 µM
6. Cc1c(C)c2c(c(C)c1O)CCC(C)(C(=O)OCCO[N+](=O)[O-])O2 (racemic)	120 µM
7. CC(C)Cc1ccc(C(C)C(=O)OCCO[N+](=O)[O-])cc1 (racemic)	46 µM
8. CC(C)Cc1ccc(C(C)C(=O)OCCc2ccc([N+](=O)[O-])cc2)cc1 (racemic)	24 µM
